Data origin: PubChem BioAssay

# ASSAY METHOD TEXT: modulators of CIT2-GFP expression in yeast, confirmation, S. cerevisiae, GFP fusion, cherry picks, mother/daughter gates (AID 2274)
# MEASUREMENT SETUP: S. cerevisiae CIT2-GFP strain, flow cytometry, 3 h; measured here: daughter cell gate; at 10 µM; stronger effect = higher value
MEASURE: GFP response, % of DMSO (%)
Form entry: value (%) — number only.

Use these answered entries as a reference point.
1. O=c1oc(/C=C/c2ccc([N+](=O)[O-])s2)nc2ccccc12
180
2. COc1ccccc1/C=C/C=N/NC(=O)c1cccs1
96.5
3. CC(C)C(=O)NC(c1cccs1)c1cc([N+](=O)[O-])c2cccnc2c1O (centres undefined)
101

## Task Which GFP response, % of DMSO is reported for this molecule? O=C1CC(c2ccccc2)CN1S(=O)(=O)c1ccccc1 (centres undefined)
## Result 103

## Task Which GFP response, % of DMSO is reported for this molecule? `CCOC(=O)Cc1csc(NC(=O)CCCCCN2C(=O)c3cccc4cccc(c34)C2=O)n1`
## Result 98.3

## Task Which GFP response, % of DMSO is reported for this molecule? `CCc1cccc2sc(N3CCN(C(=O)c4ccc([N+](=O)[O-])o4)CC3)nc12`
## Result 99.3
